experiment: yeast display, Sf9 membrane polyspecificity reagent, FACS + sequencing; frameworks hold sequencing errors
parameter measured: polyreactivity (PSR sort gate)

{"sequence code": "QVQLVESGGGLVQAGGSLRLSCAASGNTFTRNTMGWYRQAPGKERELVASISLSGASTYYADSVKGRFTISRDNAKNTVYLQMNSLKPEDTAVYYCAKRRSYGYYRAYNYWGQGTQVTVSS", "parameter measured": "polyreactivity (PSR sort gate)", "result": "high polyreactivity"}
{"sequence code": "QVQLVESGGGLVQAGGSLRLSCAASGRTFIFYAMGWYRQAPGKERELVAAITYSGTSTYYADSVKGRFTISRDNAKNTVYLQMNSLKPEDTAVYYCAKDGQRDANYYWGQGTQVTVSS", "parameter measured": "polyreactivity (PSR sort gate)", "result": "low polyreactivity"}
{"sequence code": "QVHLVESGRGLVQAGGSLRLSCAASGSIFESYAIGWYRQAPGKERELVAAISGNSDSTYYADSVKGRFTISRDNEKNTVYLQMNSLKPEDTAVYYCAKEGGNGYDYWGQGTQVTVSS", "parameter measured": "polyreactivity (PSR sort gate)", "result": "low polyreactivity"}
{"sequence code": "QVQLVESGGGLVQAGGSLRLSCAASGFTFPYYTMGWYRQAPGKERELVAAISKSGGSTYYADSVKGRFTISRDNAKNTVYLEMHSLKPEDTAVYYCNARRGSPAPYDYWGQGTQVTVSS", "parameter measured": "polyreactivity (PSR sort gate)", "result": "high polyreactivity"}
{"sequence code": "QVQLVESGGGLVQAGGSLRLSCAASGSILAINAMGWYRQAPGKERELVAAINWSGGSTFYADSVKGRFTISRDNAKNTVYLQMNSLKPEDTAVYYCNVEWTDSERGDYYVDYDYWGQGTQVTVSS", "parameter measured": "polyreactivity (PSR sort gate)", "result": "low polyreactivity"}
{"sequence code": "QVQLVESGGGLVQAGGSLRLSCAASGRIFVYKAMGSYRQAPGKERELVASITSSGGSTYYADSVKGRFTISRDNAKNTVYLQMNSLKPEDTAVYYCAADVQPDTRSTPEMDYWGQGTQVTVSS", "parameter measured": "polyreactivity (PSR sort gate)", "result": "low polyreactivity"}
{"sequence code": "QVQLVESGGALVQAGGSLRLSCAASGITFYDNAMGWYRQAPGKERELVAGISYSGGRTYYADSVKGRFTISRDNAKNTVYLQMNSLIPEDTAVDYCNARFGKYRSRQGYYYWGQGTQVTVSS", "parameter measured": "polyreactivity (PSR sort gate)", "result": "high polyreactivity"}

Source listed as the nanobody polyreactivity screen of Harvey et al. (2022).
